Recorded values, source patent US10022376B2.

- experimental-system: TYK2 (Homo sapiens (Human))
- Sequence (P29597 whole entry): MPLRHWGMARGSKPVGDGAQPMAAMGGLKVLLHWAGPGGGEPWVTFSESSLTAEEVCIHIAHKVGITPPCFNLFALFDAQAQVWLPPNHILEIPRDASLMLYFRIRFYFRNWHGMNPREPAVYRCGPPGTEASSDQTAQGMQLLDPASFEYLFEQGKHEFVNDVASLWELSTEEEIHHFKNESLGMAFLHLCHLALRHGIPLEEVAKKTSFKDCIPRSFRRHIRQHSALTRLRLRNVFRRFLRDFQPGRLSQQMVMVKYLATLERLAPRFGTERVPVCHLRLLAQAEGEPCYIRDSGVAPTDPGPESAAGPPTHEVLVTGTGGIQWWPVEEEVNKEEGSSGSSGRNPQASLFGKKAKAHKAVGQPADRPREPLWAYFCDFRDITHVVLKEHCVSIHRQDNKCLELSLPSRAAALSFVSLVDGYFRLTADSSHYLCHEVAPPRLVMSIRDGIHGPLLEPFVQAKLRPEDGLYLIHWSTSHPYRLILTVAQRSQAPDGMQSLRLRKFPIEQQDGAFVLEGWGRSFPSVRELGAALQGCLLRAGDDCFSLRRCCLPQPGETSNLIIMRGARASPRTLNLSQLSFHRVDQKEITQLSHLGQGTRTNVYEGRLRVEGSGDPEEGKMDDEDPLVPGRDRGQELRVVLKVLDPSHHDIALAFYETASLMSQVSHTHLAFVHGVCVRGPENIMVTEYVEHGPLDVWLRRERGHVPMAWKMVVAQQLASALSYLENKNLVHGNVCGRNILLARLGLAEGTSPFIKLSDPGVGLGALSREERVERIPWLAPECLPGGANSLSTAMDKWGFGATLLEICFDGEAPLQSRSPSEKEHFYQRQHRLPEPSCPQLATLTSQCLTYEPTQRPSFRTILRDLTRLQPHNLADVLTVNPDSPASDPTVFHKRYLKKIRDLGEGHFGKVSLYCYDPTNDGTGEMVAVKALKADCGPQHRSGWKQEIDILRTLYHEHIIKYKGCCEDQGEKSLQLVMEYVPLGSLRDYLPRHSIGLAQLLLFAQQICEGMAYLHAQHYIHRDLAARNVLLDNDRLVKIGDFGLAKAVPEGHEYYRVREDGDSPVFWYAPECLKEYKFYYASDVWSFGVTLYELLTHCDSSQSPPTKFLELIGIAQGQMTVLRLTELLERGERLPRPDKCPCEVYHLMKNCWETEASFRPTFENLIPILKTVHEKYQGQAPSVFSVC
Under this convention, true (1) denotes IC50 strictly below 60 nM and false (0) denotes IC50 at or above 60 nM.

Worked examples, 3 compounds total:
CNC(=O)c1n[nH]c2cc(-c3cc(F)c(O)cc3CC(F)(F)F)nc(NCc3cc(O)ccc3N(C)S(=O)(=O)c3ccccc3)c12 [Example 35] = false (0)
CNC(=O)c1n[nH]c2cc(-c3cc(F)c(O)cc3CC(F)(F)F)nc(NCc3cc(O)ccc3N(C)S(C)(=O)=O)c12 [Example 50] = true (1)
CNC(=O)c1n[nH]c2cc(-c3cc(F)c(O)cc3CC(F)(F)F)nc(NCc3c(F)cccc3N(C)S(C)(=O)=O)c12 [Example 18] = true (1)

Could you please tell me whether IC50 recorded for CCc1cc(O)c(F)cc1-c1cc2[nH]nc(C(=O)NC)c2c(NCCc2ccc(NS(=O)(=O)c3ccccc3)cc2)n1 [Example 23] is less than 60 nM? false (0)

IC50 under 60 nM? Item: CCc1cc(O)c(F)cc1-c1cc2[nH]nc(C(=O)NC)c2c(NCC2CCCC2)n1 [Example 10] true (1)
